- Tgt: JAK3 (Homo sapiens)
- Assay Protocol: Inhibition of a panel of kinases, in vitro HotSpot kinase assay: JAK3
- Assay type: biochemical
- Protocol Conditions: D-compounds panel data; 1 μM ATP; read-out: IC50 JAK3
Readings of IC50 for the listed molecules

Molecule	Tgt	IC50
C[C@@H]1[C@H](NC(=O)N(C)C)CCCN1c1cnc(C(N)=O)c(Nc2ccc(C(=O)N3CCN(C)CC3)cc2)n1 [Example D-110]	JAK3 (Homo sapiens)	1000 to 10000 nM
C[C@@H]1[C@H](NC(=O)c2ccc(C3(C(F)(F)F)CC3)cc2)CCCN1c1cnc(C(N)=O)c(Nc2cnn(C)c2)n1 [Example D-221]	JAK3 (Homo sapiens)	> 10000 nM
Cc1cc(Nc2nc(N3C[C@H](NC(=O)c4ccc(C5CC5)cc4F)CC[C@@H]3C)cnc2C(N)=O)sn1 [Example D-181]	JAK3 (Homo sapiens)	100 to 1000 nM
C[C@@H]1[C@H](NC(=O)c2ccc(C3CC3)cc2F)CCCN1c1cnc(C(N)=O)c(Nc2cc(CN(C)C)ns2)n1 [Example D-122]	JAK3 (Homo sapiens)	1000 to 10000 nM
Cn1cc(Nc2nc(N3CCC(NC(=O)c4ccc(C5CC5)cc4)C(O)C3)cnc2C(N)=O)cn1 (single isomer, unassigned) [Example D-29]	JAK3 (Homo sapiens)	> 10000 nM
C[C@@H]1[C@H](NC(=O)c2ccc3nn(C)cc3c2)CCCN1c1cnc(C(N)=O)c(Nc2cnn(C)c2)n1 [Example D-267]	JAK3 (Homo sapiens)	1000 to 10000 nM
C[C@@H]1[C@H](NC(=O)N(C)C)CCCN1c1cnc(C(N)=O)c(Nc2cn[nH]c2)n1 [Example D-53]	JAK3 (Homo sapiens)	1000 to 10000 nM
C[C@@H]1[C@H](NC(=O)c2ccc(C3CC3)cc2)CCCN1c1cnc(C(N)=O)c(Nc2ccc(N3CCC(C(=O)N(C)C)CC3)cc2)n1 [Example D-320]	JAK3 (Homo sapiens)	1000 to 10000 nM
C[C@@H]1[C@H](NC(=O)c2ccc(C(O)C(F)(F)F)cc2)CCCN1c1cnc(C(N)=O)c(Nc2cnn(C)c2)n1 (single isomer, unassigned) [Example D-250]	JAK3 (Homo sapiens)	100 to 1000 nM
C[C@@H]1[C@H](NC(=O)N(C)C2CC2)CCCN1c1cnc(C(N)=O)c(Nc2cnn(C)c2)n1 [Example D-314]	JAK3 (Homo sapiens)	1000 to 10000 nM
CN(C)C(=O)N[C@@H]1CCCN(c2cnc(C(N)=O)c(Nc3ccc(C4(C)CCN(C5CCCC5)CC4)cc3)n2)[C@@H]1CO [Example D-58]	JAK3 (Homo sapiens)	1000 to 10000 nM
C[C@@H]1[C@H](NC(=O)c2ccc(C(C)(C)C#N)cc2)CCCN1c1cnc(C(N)=O)c(Nc2cnn(C)c2)n1 [Example D-88]	JAK3 (Homo sapiens)	1000 to 10000 nM
C[C@@H]1[C@H](n2ccc3cc(C4CC4)ccc3c2=O)CCCN1c1cnc(C(N)=O)c(Nc2ccc(N3CCN(C)CC3)cc2)n1 [Example D-6]	JAK3 (Homo sapiens)	1000 to 10000 nM
C[C@@H]1[C@H](NC(=O)c2ccc(C(F)(F)F)cn2)CCCN1c1cnc(C(N)=O)c(Nc2cnn(C)c2)n1 [Example D-87]	JAK3 (Homo sapiens)	100 to 1000 nM
Cn1cc(Nc2nc(N3C4CCC(NC(=O)c5ccc(C6CC6)cc5)C3CC4)cnc2C(N)=O)cn1 (single isomer, unassigned) [Example D-202]	JAK3 (Homo sapiens)	> 10000 nM
Cc1cc(Nc2nc(N3CCC[C@H](c4ncc(-c5ccccc5)[nH]4)C3)cnc2C(N)=O)sn1 [Example D-172]	JAK3 (Homo sapiens)	100 to 1000 nM
C[C@@H]1[C@H](NC(=O)c2ccc(C3CC3)cc2Cl)CCCN1c1cnc(C(N)=O)c(Nc2cnn(C)c2)n1 [Example D-20]	JAK3 (Homo sapiens)	1000 to 10000 nM
C[C@@H]1[C@H](NC(=O)c2ccc(C3CC3)nc2)CCCN1c1cnc(C(N)=O)c(Nc2ccc(OC3CCN(C)CC3)cc2)n1 [Example D-294]	JAK3 (Homo sapiens)	100 to 1000 nM
C[C@@H]1CC[C@H](NC(=O)c2ccc(C3CC3)cc2)CN1c1cnc(C(N)=O)c(Nc2cnn(C)c2)n1 [Example D-145]	JAK3 (Homo sapiens)	> 10000 nM
C[C@@H]1[C@H](NC(=O)c2ccc(C3CC3)cc2)CCCN1c1cnc(C(N)=O)c(Nc2cnn(C)c2C(F)(F)F)n1 [Example D-276]	JAK3 (Homo sapiens)	> 10000 nM
C[C@@H]1[C@H](NC(=O)c2ccc(C3CC3)cc2Cl)CCCN1c1cnc(C(N)=O)c(Nc2ccc(N3CCN(C)CC3)cc2)n1 [Example D-16]	JAK3 (Homo sapiens)	1000 to 10000 nM
CC(C)c1ccc(S(=O)(=O)N[C@@H]2CCCN(c3cnc(C(N)=O)c(Nc4cnn(C)c4)n3)[C@@H]2C)cc1 [Example D-220]	JAK3 (Homo sapiens)	1000 to 10000 nM
C[C@H]1CC[C@@H](NC(=O)c2ccc(C(C)(C)O)cc2)CN1c1cnc(C(N)=O)c(Nc2cnn(C)c2)n1 [Example D-236]	JAK3 (Homo sapiens)	100 to 1000 nM
Cc1cc(Nc2nc(N3CCC[C@@H](NC(=O)N4Cc5ccccc5C4=O)C3)cnc2C(N)=O)sn1 [Example D-15]	JAK3 (Homo sapiens)	1000 to 10000 nM
C[C@@H]1[C@H](NC(=O)c2ccc(S(C)(=O)=O)cc2)CCCN1c1cnc(C(N)=O)c(Nc2ccc(N3CCN(C)CC3)cc2)n1 [Example D-227]	JAK3 (Homo sapiens)	100 to 1000 nM
Cc1cc(Nc2nc(N3CCC[C@@H](c4ncc(-c5ccccc5)[nH]4)C3)cnc2C(N)=O)sn1 [Example D-171]	JAK3 (Homo sapiens)	100 to 1000 nM

---

Documented pIC50 across a set of compounds
- Tgt: JAK3 (Homo sapiens)
- Sequence (P52333 1-1124): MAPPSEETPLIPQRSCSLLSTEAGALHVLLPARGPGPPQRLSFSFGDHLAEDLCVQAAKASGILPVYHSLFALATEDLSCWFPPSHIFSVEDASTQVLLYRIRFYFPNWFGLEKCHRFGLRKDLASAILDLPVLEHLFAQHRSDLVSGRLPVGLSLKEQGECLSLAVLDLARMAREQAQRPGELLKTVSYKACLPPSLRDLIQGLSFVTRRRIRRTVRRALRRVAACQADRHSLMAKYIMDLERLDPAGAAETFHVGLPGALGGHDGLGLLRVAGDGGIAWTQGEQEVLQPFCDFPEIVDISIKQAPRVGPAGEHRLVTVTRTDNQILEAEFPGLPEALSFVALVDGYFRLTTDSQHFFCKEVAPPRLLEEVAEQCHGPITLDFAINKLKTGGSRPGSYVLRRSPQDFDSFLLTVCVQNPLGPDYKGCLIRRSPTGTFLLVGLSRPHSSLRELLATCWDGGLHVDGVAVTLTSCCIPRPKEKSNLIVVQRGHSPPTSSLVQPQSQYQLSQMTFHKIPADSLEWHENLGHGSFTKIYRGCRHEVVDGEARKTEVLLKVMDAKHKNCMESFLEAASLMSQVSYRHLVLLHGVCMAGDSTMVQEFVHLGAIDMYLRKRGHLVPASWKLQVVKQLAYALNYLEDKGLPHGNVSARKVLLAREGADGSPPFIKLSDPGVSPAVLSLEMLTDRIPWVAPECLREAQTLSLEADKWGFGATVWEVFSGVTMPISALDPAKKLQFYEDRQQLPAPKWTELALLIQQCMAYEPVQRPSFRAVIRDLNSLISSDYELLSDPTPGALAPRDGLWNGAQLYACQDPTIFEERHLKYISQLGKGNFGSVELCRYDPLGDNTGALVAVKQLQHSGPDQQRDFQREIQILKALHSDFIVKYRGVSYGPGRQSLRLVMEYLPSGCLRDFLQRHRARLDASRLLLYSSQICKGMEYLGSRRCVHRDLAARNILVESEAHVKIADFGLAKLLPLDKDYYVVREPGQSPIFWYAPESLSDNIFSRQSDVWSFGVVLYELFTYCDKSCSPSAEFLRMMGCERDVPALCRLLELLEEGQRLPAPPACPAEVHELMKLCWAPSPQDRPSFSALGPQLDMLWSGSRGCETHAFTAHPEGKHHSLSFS
- Assay Protocol: Inhibition of a panel of kinases, in vitro HotSpot kinase assay: JAK3
- Format: biochemical
- Protocol Conditions: D-compounds panel data; 1 μM ATP; read-out: IC50 JAK3
pIC50: −log10 of the molar value.

Compound	Tgt	pIC50
C[C@@H]1[C@H](NC(=O)c2ccc(C3CC3)cc2)CCCN1c1cnc(C(N)=O)c(Nc2ccc(OC3C[C@H]4CC[C@@H](C3)N4C)cc2)n1 (stereo partly drawn) [Example D-104]	JAK3 (Homo sapiens)	6.00 to 7.00
C[C@@H]1[C@H](NC(=O)c2ccc(C3CC3)cc2F)CCCN1c1cnc(C(N)=O)c(Nc2nc3c(s2)CN(C)CC3)n1	JAK3 (Homo sapiens)	< 5.00
C[C@@H]1[C@H](NC(=O)c2ccc(C3CC3)cc2F)CCCN1c1cnc(C(N)=O)c(Nc2ccc(C3(C)CCN(C4CC4)CC3)cc2)n1	JAK3 (Homo sapiens)	7.00 to 8.00
